Each recorded value in this set is attributed to the supplement of paper PMC9116672.

# Experimental protocol: duplex melting temperature (HRM, EvaGreen); higher = more stable duplex
# Experimental context: duplex concentration 20 µM; backbone: PS-PO (listed strand fully phosphorothioate, complement phosphodiester)
Measured parameter: duplex melting temperature (°C)
Kindly answer with a numeric value in °C, unit omitted.

>  <Polymer sequence>
AATGAGGAGTGAAATGG

>  <Measured parameter>
duplex melting temperature

>  <Assay result>
63.3

$$$$
>  <Polymer sequence>
TTCGCGGTCTCCATTA

>  <Measured parameter>
duplex melting temperature

>  <Assay result>
67.8

$$$$
>  <Polymer sequence>
GGTGGCGTTCTT

>  <Measured parameter>
duplex melting temperature

>  <Assay result>
61.5

$$$$
>  <Polymer sequence>
TATTCTGCCAATGGAAC

>  <Measured parameter>
duplex melting temperature

>  <Assay result>
62.3

$$$$
>  <Polymer sequence>
CGACATGTATGGCACAG

>  <Measured parameter>
duplex melting temperature

>  <Assay result>
66.3

$$$$

Prompt: Need duplex melting temperature, item "CGTGCAGCACTACTTG"
Response: 66.5

Prompt: Need duplex melting temperature, item "GGACGGCGTT"
Response: 62.8

Prompt: Need duplex melting temperature, item "TACTTCCAACGTAGG"
Response: 59.5

Prompt: Need duplex melting temperature, item "ACTGTATCGCCCTA"
Response: 63.7

Prompt: Need duplex melting temperature, item "TTGAAAACCCATGTGC"
Response: 63.6

----------
# Experimental protocol: duplex formation free energy ΔG50 (Van't Hoff fit of HRM Tm); higher = less stable duplex
# Experimental context: temperature for dG: 50 °C; NaCl: 500 mM (unadjusted); backbone: PO-PO (both strands phosphodiester DNA)
Known duplex formation free energy ΔG50 of a selection of sequences
Kindly answer with a numeric value in kJ/mol, unit omitted.

Worked cases, duplex formation free energy ΔG50 given:
>  <Polymer sequence>
AGGAGTGAATGAAATGG

>  <duplex formation free energy ΔG50 [kJ/mol]>
-49

$$$$
>  <Polymer sequence>
CTACCAGCGGCGCCGTT

>  <duplex formation free energy ΔG50 [kJ/mol]>
-70

$$$$
>  <Polymer sequence>
CAAGCCTCGATTTTGT

>  <duplex formation free energy ΔG50 [kJ/mol]>
-51.4

$$$$

Next sequence, please.
Prompt: Need duplex formation free energy ΔG50, item "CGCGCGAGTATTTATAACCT"
Response: -76.2

----------
Known duplex formation entropy ΔS of a selection of sequences
# Experimental protocol: duplex formation entropy ΔS (Van't Hoff fit of HRM Tm); higher = smaller entropy loss on duplex formation
# Experimental context: temperature for dG: 50 °C; NaCl: 500 mM (unadjusted); backbone: PO-PO (both strands phosphodiester DNA)

Worked cases, duplex formation entropy ΔS given:
>  <Polymer sequence>
GTCATTGTGCTTTTGC

>  <Measured parameter>
duplex formation entropy ΔS

>  <Assay result>
-205 cal/mol/K

$$$$
>  <Polymer sequence>
GTGAAACAATGCTGTAG

>  <Measured parameter>
duplex formation entropy ΔS

>  <Assay result>
-199 cal/mol/K

$$$$

Next sequence, please.
Prompt: Need duplex formation entropy ΔS, item "CGACATGTATGGCACAG"
Response: -198 cal/mol/K

----------
# Experimental protocol: duplex formation entropy ΔS (Van't Hoff fit of HRM Tm); higher = smaller entropy loss on duplex formation
# Experimental context: temperature for dG: 50 °C; NaCl: 500 mM (unadjusted); backbone: PS-PS (both strands fully phosphorothioate)
Known duplex formation entropy ΔS of a selection of sequences
Kindly answer with a numeric value in cal/mol/K, unit omitted.

>  <Polymer sequence>
CCGTTGCTGCTAGG

>  <Assay result>
-97.4

$$$$
>  <Polymer sequence>
TGTCGCACCCTACTA

>  <Assay result>
-157

$$$$
>  <Polymer sequence>
AGAGCGCCCTGCTGCC

>  <Assay result>
-211

$$$$
>  <Polymer sequence>
ATAACTTACTCTCGCCT

>  <Assay result>
-172

$$$$
>  <Polymer sequence>
CTGTAAGGCGATATGTT

>  <Assay result>
-201

$$$$
>  <Polymer sequence>
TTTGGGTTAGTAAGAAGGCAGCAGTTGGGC

>  <Assay result>
-377

$$$$
>  <Polymer sequence>
TTAACCTGCAATGGATC

>  <Assay result>
-180

$$$$
>  <Polymer sequence>
TGCCATGTTGAAAACC

>  <Assay result>
-203

$$$$

Prompt: Need duplex formation entropy ΔS, item "ACTCGCTCTACCTTAAT"
Response: -167

Prompt: Need duplex formation entropy ΔS, item "GCAGGAGCCGCGACCTG"
Response: -212

Prompt: Need duplex formation entropy ΔS, item "TTGAAAACCCATGTGC"
Response: -189

Prompt: Need duplex formation entropy ΔS, item "AGGAGTGAATGAAATGG"
Response: -201

Prompt: Need duplex formation entropy ΔS, item "GGTGGCGTTCTT"
Response: -101

Prompt: Need duplex formation entropy ΔS, item "CCCAGGCCTCGGATTTA"
Response: -205

Prompt: Need duplex formation entropy ΔS, item "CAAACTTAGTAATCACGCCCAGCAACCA"
Response: -303

Prompt: Need duplex formation entropy ΔS, item "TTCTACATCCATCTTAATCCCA"
Response: -212
